Biological target: 3',5'-cyclic-AMP phosphodiesterase 4D (Homo sapiens, UniProt Q08499)
Sequence (Q08499 whole entry): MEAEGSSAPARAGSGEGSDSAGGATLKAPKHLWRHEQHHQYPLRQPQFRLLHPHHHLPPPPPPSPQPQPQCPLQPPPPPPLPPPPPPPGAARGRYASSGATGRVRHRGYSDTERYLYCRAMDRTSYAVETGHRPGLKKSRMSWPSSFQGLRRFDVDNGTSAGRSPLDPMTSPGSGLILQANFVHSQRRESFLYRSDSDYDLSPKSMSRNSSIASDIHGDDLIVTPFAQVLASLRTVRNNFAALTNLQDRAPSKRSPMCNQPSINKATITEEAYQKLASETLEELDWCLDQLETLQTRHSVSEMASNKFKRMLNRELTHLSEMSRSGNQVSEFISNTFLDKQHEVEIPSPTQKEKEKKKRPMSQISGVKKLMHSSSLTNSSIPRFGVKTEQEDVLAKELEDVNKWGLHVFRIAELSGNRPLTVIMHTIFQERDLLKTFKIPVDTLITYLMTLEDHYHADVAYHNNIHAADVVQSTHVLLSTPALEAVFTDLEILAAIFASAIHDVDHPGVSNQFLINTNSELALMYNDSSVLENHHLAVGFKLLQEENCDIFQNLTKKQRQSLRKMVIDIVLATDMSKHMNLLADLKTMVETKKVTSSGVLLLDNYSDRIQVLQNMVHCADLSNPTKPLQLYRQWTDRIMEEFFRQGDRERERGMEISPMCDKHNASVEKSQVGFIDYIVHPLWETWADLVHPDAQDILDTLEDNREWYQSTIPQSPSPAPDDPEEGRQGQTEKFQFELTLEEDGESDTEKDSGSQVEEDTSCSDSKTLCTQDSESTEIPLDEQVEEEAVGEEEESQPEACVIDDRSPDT
Assay: Inhibition of human recombinant PDE4D3 assessed after 60 mins by IMAP fluorescence polarization assay
OBSERVABLE: IC50 (µM)

O=[N+]([O-])c1ccc(Sc2ccncc2)c(Cl)c1 : 7.3

(A) O=[N+]([O-])c1cc(Cl)ccc1Sc1ccncc1
(B) Cc1ccc([N+](=O)[O-])cc1S(=O)(=O)N(C)C
In: Compare the recorded IC50 of A and B ; state which is larger. # answer = label of selected item
Out: A

----------
Target: 3',5'-cyclic-AMP phosphodiesterase 4D (Homo sapiens, UniProt Q08499)
Assay: Inhibition of human recombinant PDE4D3 assessed at 10 uM after 60 mins by IMAP fluorescence polarization assay
OBSERVABLE: inhibition (%)

Take a look at these entries with their results.
O=[N+]([O-])c1cc(Cl)ccc1Sc1ccccc1 : 13
O=[N+]([O-])c1ccc(Cl)cc1Sc1ccccc1Br : 2
O=[N+]([O-])c1ccc(Sc2ccccn2)c(Cl)c1 : 24
Nc1ccc(Sc2ccc(Cl)cc2[N+](=O)[O-])cc1 : 7
Nc1ccc(Sc2ccc([N+](=O)[O-])c(Cl)c2)cc1 : 3

(1) O=[N+]([O-])c1ccc(Sc2ccncc2)c(Cl)c1
(2) O=[N+]([O-])c1cc(Cl)ccc1Sc1ccccc1Br
In: Given 1 and given 2 , which shows the smaller recorded inhibition? # answer = label of selected item
Out: 2

(I) CC(=O)Nc1ccccc1Sc1cc(Cl)ccc1[N+](=O)[O-]
(II) O=[N+]([O-])c1cc(Cl)ccc1Sc1ccncc1
In: Given I and given II , which shows the smaller recorded inhibition? # answer = label of selected item
Out: I
(I: 10%, II: 74%)
